Data provenance is ChEMBL document CHEMBL1128748.

tested on: Nucleic Acid; assay: Inhibitory concentration against ethidium in DNA-binding assay with [poly(dG-dC)]2 (synthetic oligonucleotide); format: nucleic-acid assay
test readout: Q (µM)

- compound: "COc1cc(NS(C)(=O)=O)ccc1Nc1c2ccccc2nc2ccccc12 [AMSACRINE]"
  units text: "µM"
  Q: 4.5
- compound: "N=C(N)c1ccc(/N=N/Nc2ccc(C(=N)N)cc2)cc1 [DIMINAZENE]"
  units text: "µM"
  Q: 19
- compound: "Cc1nc(-c2c3ccccc3nc3ccccc23)sc1CCOC(=O)c1ccc(/N=N/Nc2cccc(C(=O)OCCN(C)C)c2)cc1"
  units text: "µM"
  Q: 34
- compound: "Nc1ccc2c(-c3ccccc3)c3ccc(N)cc3nc2c1"
  units text: "µM"
  Q: 16
- compound: "Cc1nc(-c2c3ccccc3nc3ccccc23)sc1CCOC(=O)c1ccc(N/N=N/c2ccc(C(=O)OCCN3CCOCC3)cc2)cc1"
  units text: "µM"
  Q: 39

[P] Cc1nc(-c2c3ccccc3nc3ccccc23)sc1CCOC(=O)c1ccc(N/N=N/c2ccc(C(=O)OCCN3CCCC3)cc2)cc1
[Q] O=C(OCCN1CCOCC1)c1ccc(/N=N/Nc2ccc(C(=O)OCCN3CCOCC3)cc2)cc1
Of the two listed items, P and Q , which carries the larger Q figure? Identify your pick by its label. P

###

tested on: Nucleic Acid; assay: Inhibitory concentration against ethidium in DNA-binding assay with [poly(dA-dT)]2 (synthetic oligonucleotide); type: nucleic-acid assay
test readout: Q (µM)

Illustrative cases are given below, each with its answer.
- compound: "Nc1ccc2cc3ccc(N)cc3nc2c1 [PROFLAVINE]"
  test readout: "Q"
  reading: 24
- compound: "Nc1ccc2c(-c3ccccc3)c3ccc(N)cc3nc2c1"
  test readout: "Q"
  reading: 22
- compound: "N=C(N)c1ccc(/N=N/Nc2ccc(C(=N)N)cc2)cc1 [DIMINAZENE]"
  test readout: "Q"
  reading: 5
- compound: "COc1cc(NS(C)(=O)=O)ccc1Nc1c2ccccc2nc2ccccc12 [AMSACRINE]"
  test readout: "Q"
  reading: 25
- compound: "CC(=O)c1ccc(N/N=N/c2ccc(C(=O)OCCc3sc(-c4c5ccccc5nc5ccccc45)nc3C)cc2)cc1"
  test readout: "Q"
  reading: 19
- compound: "Cc1nc(-c2c3ccccc3nc3ccccc23)sc1CCOC(=O)c1ccc(N/N=N/c2ccc(C(=N)N)cc2)cc1"
  test readout: "Q"
  reading: 12

[I] Cc1nc(-c2c3ccccc3nc3ccccc23)sc1CCO
[II] O=C(OCCN1CCOCC1)c1ccc(/N=N/Nc2ccc(C(=O)OCCN3CCOCC3)cc2)cc1
Which record shows the lower Q: the first, I , or the second, II ? // output: label of the selected item II

[A] Cc1nc(-c2c3ccccc3nc3ccccc23)sc1CCOC(=O)c1ccc(N/N=N/c2ccc(C(N)=O)cc2)cc1
[B] Cc1nc(-c2c3ccccc3nc3ccccc23)sc1CCOC(=O)c1ccc(/N=N/Nc2cccc(C(=O)OCCN(C)C)c2)cc1
Pick one: A or B . Which one has the lower reported Q? Write down the label of the entry you select. B

[a] Cc1nc(-c2c3ccccc3nc3ccccc23)sc1CCOC(=O)c1ccc(/N=N/Nc2ccc(C(=O)OCCN(C)C)cc2)cc1
[b] O=C(OCCN1CCCCC1)c1ccc(/N=N/Nc2ccc(C(=O)OCCN3CCCCC3)cc2)cc1
[c] Cc1nc(-c2c3ccccc3nc3ccccc23)sc1CCOC(=O)c1ccc(N)cc1
Arrange these compounds by their Q, starting with the largest number. Your answer should be the labels, listed in the requested order. c, a, b
(c: 24 µM, a: 16 µM, b: 11 µM)
